Each entry below carries its reported EC50 (read off the curve).
biological target: T1, SARS-CoV-2 S1 (S1 subunit of spike protein of SARS-CoV-2) (SARS-CoV-2, UniProt P0DTC2 14-685); experiment: ELISA, SARS-CoV-2 S1 coated on the plate, anti-human IgG-HRP, OD450
T1 construct: domain: S1; also called SARS-CoV-2 Spike protein S1 domain

binder: Antibody 12-9 (antibody, V domains shown) VH: EVQLVESGGGLVKPGGSLRLSCAASEFTFSSYSMNWVRQAPGKGLEWVSSISSSGSDIYYADSVKGRFTISRDNAKKSLYLQMNSLRVEDTAVYYCATNGGAHSSTWSFYGMDVWGQGTTVTVSS VL: SYELTQPPSVSVSPGQTATITCSGDKLGDKYACWYQQRPGQSPVLVIYQDSKRPSGIPERFSGSNSGNTATLTIGGTQAMDEAAYFCQAWDSNTGVFGGGTKLTVL
EC50 (read off the curve): ~0.03 µg/mL
--
binder: Antibody 12-13 (antibody, V domains shown) VH: QVQVVQSGAEVKKPGASVKVSCKVSGYTLTELSIHWVRQTPGKGLEWMGGFDPEDGETIYAQWLQGRVTMTEDTSTDIAYMELSSLRHEDTAVYYCATGPAIAGAGTNWFDPRGQGTLVIVSS VL: QSALTQPASVSGSPGQSITISCTGTSSDVGGYNYVSWYQQHPGKAPKLMIYDVSKRPSGVPDRFSGSKSGNTASLTISGLQAEDEADYYCTSYTNSSTWVFGGGTKLTVL
EC50 (read off the curve): ~0.07 µg/mL
